Tested on: Plasmodium berghei
Experiment: Screen against P. berghei liver stage (PbLuc), transformed with Luciferase, at 10uM
Format: functional, HepG2
Conditions: tested at 10 uM
Out of some 69,000 compounds screened, about 8,600 (12%) showed an effect of 50% or more. The entries come from a sample that favours strong results as a whole.
Decide using INHIBITION: a value greater than or equal to 20% is rule met, a smaller one is rule not met.

Look over these answered cases.
{"columns": ["molecule", "label.class"],
 "data": [
  ["Cc1ccccc1-c1noc(CN2CCc3cncnc3C2)n1", "rule not met"],
  ["O=C1OCCN1CC(=O)N1C[C@@H]2CC[C@H]1CN(C(=O)c1cccnc1)C2", "rule met"],
  ["CCNc1ncc(C(=O)NCc2csc(C)n2)cn1", "rule met"],
  ["CCNc1ncc(C(=O)NCCCc2ccncc2)cn1", "rule not met"],
  ["CCOc1ccc(Cl)c(C(=O)N2CCN(c3ccncc3)CC2)n1", "rule not met"],
  ["CCNc1ncc(C(=O)NCCc2csc(-c3ncccn3)n2)cn1", "rule met"],
  ["CCOc1ccc(Cl)c(C(=O)N2CCN(c3ncccn3)CC2)n1", "rule not met"],
  ["O=C(NCc1cccnc1)NCC(O)c1ccccc1C(F)(F)F (configuration not stated)", "rule not met"],
  ["CCOc1ccc(Cl)c(C(=O)N2CCN(c3cnccn3)CC2)n1", "rule met"],
  ["CCNc1ncc(C(=O)NCCc2ccc(C)c(C)c2)cn1", "rule not met"]
]}

QUERY: Test whether the molecule CN(CC1CCOC1)S(=O)(=O)c1cccc(C(=O)N2CCCCCC2)c1 (configuration not stated) records INHIBITION of 20% or higher.
RESULT: rule not met

QUERY: Is it the case that CC(=O)c1c(F)cccc1NCC(O)c1ccc(F)c(F)c1 (configuration not stated) has INHIBITION reaching or exceeding 20%?
RESULT: rule not met

###

System: Plasmodium berghei
Experiment: Screen against P. berghei liver stage (PbLuc), transformed with Luciferase, at 10uM
Assay type: functional, HepG2
Conditions: tested at 10 uM
The campaign covered roughly 69,000 compounds. About 8,600 (12%) showed an effect of 50% or more. This is one part of a sample in which strong results are shown more often than they occur.
# Satisfied = INHIBITION below 30% (exclusive); Not satisfied = INHIBITION at/above 30%

Here's what some known entries look like.
{"columns": ["compound", "label.class"],
 "data": [
  ["CN(C)S(=O)(=O)NCc1cccnc1Oc1ccc(F)cc1F", "Not satisfied"],
  ["CC(c1nc(C2CC2)no1)N(C)Cc1cccc(F)c1 (stereo not given)", "Not satisfied"],
  ["Cc1nccn1C1CCCN(C(=O)c2cccc(OCC(N)=O)c2)C1 (stereo not given)", "Satisfied"],
  ["CN(C)S(=O)(=O)NCc1cccnc1Oc1ccccc1F", "Satisfied"],
  ["Cc1csc(C2(NCc3nnc(-c4ccco4)o3)CCCC2)n1", "Not satisfied"]
]}

QUERY: Below 30% on INHIBITION? Entry CC(C)COCC(NC(=O)c1cnccn1)c1ccco1 (stereo not given)
RESULT: Satisfied

QUERY: Could you please tell me whether INHIBITION recorded for O=C(COC1CCCC1)NCCCn1nc2ccccn2c1=O is less than 30%?
RESULT: Satisfied

QUERY: # strict comparison: is reported INHIBITION < 30%? input = O=C(CCn1c(C(F)F)cc2cccnc21)NC1CCCCC1
RESULT: Satisfied

QUERY: Strictly below 30%: is that where INHIBITION of CC(C)Cn1nccc1NC(=O)CN1CCOC(Cn2cccn2)C1 (stereo not given) sits?
RESULT: Satisfied

QUERY: Report whether reported INHIBITION is lower than 30% (strictly) for Cc1csc(C2(NCc3ccc(OCC(F)F)cc3)CCCC2)n1
RESULT: Satisfied

###

Test system: Plasmodium berghei
Experiment: Screen against P. berghei liver stage (PbLuc), transformed with Luciferase, at 10uM
Assay type: functional, HepG2
Conditions: tested at 10 uM
In all, about 69,000 compounds went through this assay and about 8,600 (12%) showed an effect of 50% or more. The sample as a whole holds a higher share of strong results than the screen did.
observed.property: INHIBITION (%)
Note: unit % is implicit; provide only the numeric part.

Observe how each entry below is paired with its result.
{"columns": ["compound", "INHIBITION, %"],
 "data": [
  ["CNC(=O)N1CC[C@@H]2CN(CCc3cccc(OC)c3)S(=O)(=O)[C@@H]2CC1", 8.31],
  ["CNC(=O)N1CC[C@@H]2CN(Cc3cccc(Cl)c3)S(=O)(=O)[C@@H]2CC1", -2.17],
  ["O=C(c1cc(-c2cccs2)nc2ccccc12)N1CCN(CCO)CC1", 68.4],
  ["CNC(=O)N1CC[C@@H]2CN(Cc3cccc(OC)c3)S(=O)(=O)[C@@H]2CC1", 63.8],
  ["CC1CN(S(=O)(=O)c2ccc(C(=O)NCC(F)F)cc2)CCCO1 (stereo not given)", 49.2],
  ["O=C(c1cc(-c2ccccc2)nc2onc(C3CC3)c12)N1CC[C@H](O)C1", 73]
]}

Lab note: measured INHIBITION of Cc1nc(O)ccc1C(=O)N1CCCC1c1nc(-c2ccccc2)n[nH]1 (stereo not given) was 69.8

Record Cc1nc2cc(F)ccc2cc1C(=O)N1CCN(CC(C)O)CC1 (stereo not given) . Reported INHIBITION: -11.5

// recorded INHIBITION for COc1cccc(NC(=O)N2CCC(O)(C(F)(F)F)C2)c1 (stereo not given) : 79.1

Lookup result for COc1cccc(CC(=O)N2CCC(O)(C(F)(F)F)C2)c1 (stereo not given) ; measured INHIBITION: 49.1

###

Test system: Plasmodium berghei
Assay: Screen against P. berghei liver stage (PbLuc), transformed with Luciferase, at 10uM
Assay type: functional, HepG2
Conditions: tested at 10 uM
Hit rate of the full screen: of about 69,000 compounds, about 8,600 (12%) showed an effect of 50% or more. Only a selection was taken, and strong results are over-represented in it overall.
Class key for INHIBITION values: lower = under 20%, middle = from 20% up to 30%, upper = 30% and over

See these solved cases before continuing.
{"columns": ["compound", "tested.on", "label.class"],
 "data": [
  ["CCNc1ncc(C(=O)N(C)C(C)c2ccc3c(c2)OCCO3)cn1 (configuration not stated)", "Plasmodium berghei", "lower"],
  ["O=C(NCCOc1ccc2c(c1)OCO2)N1CCC1", "Plasmodium berghei", "middle"]
]}

QUERY: Which category fits this record: CC(C)n1nc2c(cc1=O)CN(Cc1nc(-c3ccco3)no1)CC2
RESULT: upper

QUERY: // bin(item) where item = CN(Cc1ccccc1Br)C(=O)Cn1nc(-c2ccc(F)cc2)oc1=O
RESULT: middle

QUERY: In plain terms, what class is COCCNc1ccc(CC2CCNC2)cn1 (configuration not stated) ?
RESULT: lower

QUERY: // return the class label for CCCOc1c(CNC2CCSC2)cccc1OC (configuration not stated)
RESULT: lower

QUERY: Bin? COCCN1CCc2cc(C(=O)O)c(-c3ccoc3)nc2CC1
RESULT: upper

QUERY: Class label required: CN(Cc1ccc(Cl)s1)C(=O)Cn1nc(-c2ccc(F)cc2)oc1=O
RESULT: upper

QUERY: Looking at Cc1ccsc1CN(C)C(=O)Cn1nc(-c2ccc(F)cc2)oc1=O , which class would you pick?
RESULT: middle

QUERY: Band assignment needed for Cc1cc(Cc2ccc(S(=O)(=O)N3CCSCC3)cc2)c(=O)[nH]n1 please.
RESULT: lower

QUERY: Sort CCCS(=O)(=O)N1CCC2(CCN(Cc3cccc(F)c3)C2=O)C1 (configuration not stated) into one of the categories.
RESULT: lower

###

Test system: Plasmodium berghei
Test: Screen against P. berghei liver stage (PbLuc), transformed with Luciferase, at 10uM
Assay type: functional, HepG2
Conditions: tested at 10 uM
The whole screen tested about 69,000 compounds, of which about 8,600 (12%) showed an effect of 50% or more. This excerpt belongs to a sample that is enriched for strong results.
observed.property: INHIBITION (%)
Give the number; % is assumed, so skip it.

{"columns": ["compound", "tested.on", "readout.number"],
 "data": [
  ["COc1cc(CN(C)C(=O)Nc2cc(C)on2)ccc1SC", "Plasmodium berghei", 40.1],
  ["COc1cccc(CNC(=O)c2nc3c(o2)CN(C(=O)N(C)C)C3)c1", "Plasmodium berghei", 48.2]
]}

Input CC(Cn1cccn1)NC(=O)NCCc1cnn(C)c1 (configuration not stated) . Output INHIBITION: 49.6

Record Cc1ccccc1OCCC(=O)N(C)Cc1c(C)noc1C , field INHIBITION: 25.5

INHIBITION in this record for Cc1ccc(C)c(OCC(O)CN(C)CC(=O)Nc2cc(C)on2)c1 (configuration not stated) : 84.3

For Cc1ccc(OCCN(C)C(=O)CCCC(N)=O)c(C)c1 the compound record lists INHIBITION as -7.65

Form: compound = Cc1ccc(OCC(O)CN(C)CC(=O)Nc2cc(C)on2)c(C)c1 (configuration not stated) ; INHIBITION = 77.9

Per the record, CC(NCc1cnc(N2CCOCC2)nc1)c1ccc(Cl)s1 (configuration not stated) has INHIBITION of 51.8

Entry O=C(NCCN1CCCC1)c1nc2c(o1)CN(C(=O)c1cccnc1)C2 — recorded INHIBITION = -42.8

For Cc1ccc(C)c(OCc2cc(C(=O)N(C)CC(O)CO)no2)c1 (configuration not stated) the compound record lists INHIBITION as 10.4

Input Cc1ccc(OCC(O)CN(C)CC(=O)NC(C)C)c(C)c1 (configuration not stated) . Output INHIBITION: 33

# compound CC(NCc1cnc(N2CCOCC2)s1)c1ccc(Cl)s1 (configuration not stated) ; its INHIBITION = -19.1
